Every entry's value here was drawn from patent US6358885B1.

Test system: blackgrass
PROTOCOL_NOTES: Test C preemergence/postemergence greenhouse plant response rating 0 to 100
Assay type: in vivo, Alopecurus myosuroides
RECORDED_CONDITIONS: POSTEMERGENCE; Rate 1 g/ha
ATTRIBUTE_MEASURED: Plant response rating (0 to 100), Blackgrass

COCN1C(=O)COc2cc(F)c(-c3nn4c(c3Cl)CCCC4)cc21
30
C#CCN1C(=O)COc2cc(F)c(-c3nn4c(c3Br)CCCC4)cc21
30
CC(C)N1C(=O)COc2cc(F)c(-c3nn4c(c3Cl)CCCC4)cc21
10
C#CC(C)N1C(=O)COc2cc(F)c(-c3nn4c(c3Cl)CCCC4)cc21 (stereo not shown)
20

====

Quick reference: Plant response rating, Wheat of the listed items.
Test system: wheat
PROTOCOL_NOTES: Test B preemergence/postemergence greenhouse plant response rating 0 to 10
Type: in vivo, Triticum aestivum
RECORDED_CONDITIONS: PREEMERGENCE, Rate 50 g/ha; 0 to 10 scale
ATTRIBUTE_MEASURED: Plant response rating, Wheat

O=C1COc2cc(F)c(-c3nn4c(c3Br)CCCC4)cc2N1 [Compound 80]
0
COCCOc1cc(-c2nn3c(c2Cl)CCCC3)c(Cl)cc1Cl [Compound 72]
0
C#CCN1C(=O)COc2cc(F)c(-c3nn4c(c3Cl)CCCC4)cc21 [Compound 34]
3

====

This listing pairs compounds with measured Plant response rating, Cocklebur.
Tested on: cocklebur
PROTOCOL_NOTES: Test B preemergence/postemergence greenhouse plant response rating 0 to 10
Assay type: in vivo, Xanthium pensylvanicum
RECORDED_CONDITIONS: PREEMERGENCE, Rate 50 g/ha; 0 to 10 scale
ATTRIBUTE_MEASURED: Plant response rating, Cocklebur

COCOc1cc(-c2nn3c(c2Cl)CCCC3)c(F)cc1Cl
0
CCCOc1cc(-c2nn3c(c2Cl)CCCC3)c(F)cc1Cl
0
CON=C(C)c1cc(-c2nn3c(c2Cl)CCCC3)c(F)cc1Cl
0
CCOC(=O)COc1cc(-c2nn3c(c2Cl)CCCC3)c(F)cc1Cl
0
Clc1ccc(-c2nn3c(c2Cl)CCCC3)c(Cl)c1
0
CC(=O)c1cc(-c2nn3c(c2Cl)CCCC3)c(F)cc1Cl
0
CC(C)OC(=O)COc1cc(-c2nn3c(c2Br)CCCC3)c(F)cc1Cl
0
Oc1cc(-c2nn3c(c2Br)CCCC3)c(F)cc1Cl
0
COCCN1C(=O)COc2cc(F)c(-c3nn4c(c3Cl)CCCC4)cc21
1
C=CCOC(=O)COc1cc(-c2nn3c(c2Cl)CCCC3)c(F)cc1Cl
0
O=C1COc2cc(F)c(-c3nn4c(c3Br)CCCC4)cc2N1
0

====

Tested on: wild oat
PROTOCOL_NOTES: Test B preemergence/postemergence greenhouse plant response rating 0 to 10
Type: in vivo, Avena fatua
RECORDED_CONDITIONS: PREEMERGENCE, Rate 50 g/ha; 0 to 10 scale
ATTRIBUTE_MEASURED: Plant response rating, Wild oat

Clc1cc(Cl)c(-c2nn3c(c2Cl)CCCC3)cc1OCC1CC1
0
COCCOc1cc(-c2nn3c(c2Cl)CCCC3)c(Cl)cc1Cl
0
C#CC(C)Oc1cc(-c2nn3c(c2Cl)CCCC3)c(Cl)cc1Cl (centres unmarked)
0
O=C1COc2cc(F)c(-c3nn4c(c3Cl)CCCC4)cc2N1
0
COC(=O)c1cc(-c2nn3c(c2Cl)CCCC3)c(F)cc1Cl
2

====

Tested on: barley
PROTOCOL_NOTES: Test B preemergence/postemergence greenhouse plant response rating 0 to 10
Format: in vivo, Hordeum vulgare
RECORDED_CONDITIONS: Rate 200 g/ha, PREEMERGENCE; 0 to 10 scale
# key: entry, value: Plant response rating, Barley
ATTRIBUTE_MEASURED: Plant response rating, Barley

O=C1COc2cc(F)c(-c3nn4c(c3Cl)CCCC4)cc2N1
0
C#CCOc1cc(-c2nn3c(c2Br)CCCC3)c(F)cc1Cl
1
Clc1ccc(-c2nn3c(c2Cl)CCCC3)c(Cl)c1
0
Fc1cc(Cl)c(OC2CCCC2)cc1-c1nn2c(c1Cl)CCCC2
0
CCC(C)Oc1cc(-c2nn3c(c2Cl)CCCC3)c(F)cc1Cl (centres unmarked)
0
CCS(=O)(=O)Oc1cc(-c2nn3c(c2Cl)CCCC3)c(F)cc1Cl
0
COc1cc(-c2nn3c(c2Cl)CCCC3)c(F)cc1Cl
4
Fc1cc(Cl)c(OCc2ccccc2)cc1-c1nn2c(c1Cl)CCCC2
0

====

System: soybean
PROTOCOL_NOTES: Test C preemergence/postemergence greenhouse plant response rating 0 to 100
Format: in vivo, Glycine max
RECORDED_CONDITIONS: POSTEMERGENCE, 250 g/ha, 0 to 100 scale
ATTRIBUTE_MEASURED: Plant response rating, Soybean

C#CC(C)N1C(=O)COc2cc(F)c(-c3nn4c(c3Cl)CCCC4)cc21 (stereo not shown) [Compound 50]
90
COC(=O)C(C)Oc1cc(-c2nn3c(c2Cl)CCCC3)c(F)cc1Cl (stereo not shown) [Compound 28]
80
CC(C)OC(=O)c1cc(-c2nn3c(c2Cl)CCCC3)c(F)cc1Cl [Compound 44]
70
COC(=O)c1cc(-c2nn3c(c2Cl)CCCC3)c(F)cc1Cl [Compound 43]
90

====

Item-by-item account of Plant response rating, Blackgrass
System: blackgrass
PROTOCOL_NOTES: Test B preemergence/postemergence greenhouse plant response rating 0 to 10
Type: in vivo, Alopecurus myosuroides
RECORDED_CONDITIONS: PREEMERGENCE, Rate 50 g/ha; 0 to 10 scale
From the text: Seeds of barley (Hordeum vulgare), barnyardgrass (Echinochloa crus-galli), bedstraw (Galium aparine), blackgrass (Alopecurus myosuroides), […] […] Treated plants and controls were maintained in a greenhouse for twelve to sixteen days, after which all species were compared to controls and visually evaluated. […]
ATTRIBUTE_MEASURED: Plant response rating, Blackgrass

CCN1C(=O)COc2cc(F)c(-c3nn4c(c3Cl)CCCC4)cc21
3
FCCCOc1cc(-c2nn3c(c2Cl)CCCC3)c(F)cc1Cl
1
Fc1cc(Cl)ccc1-c1nn2c(c1Br)CCCC2
4
Fc1cc(Cl)c(OCCCl)cc1-c1nn2c(c1Cl)CCCC2
0
COCN1C(=O)COc2cc(F)c(-c3nn4c(c3Cl)CCCC4)cc21
7
CCCN1C(=O)COc2cc(F)c(-c3nn4c(c3Br)CCCC4)cc21
3
CCCCN1C(=O)COc2cc(F)c(-c3nn4c(c3Cl)CCCC4)cc21
6
CCOC(=O)c1cc(-c2nn3c(c2Cl)CCCC3)c(F)cc1Cl
4
Fc1cc(Cl)c(OC2CCCC2)cc1-c1nn2c(c1Cl)CCCC2
2
CCCN1C(=O)COc2cc(F)c(-c3nn4c(c3Cl)CCCC4)cc21
5

====

System: chickweed
PROTOCOL_NOTES: Test B preemergence/postemergence greenhouse plant response rating 0 to 10
Type: in vivo, Stellaria media
RECORDED_CONDITIONS: Rate 200 g/ha, PREEMERGENCE; 0 to 10 scale
ATTRIBUTE_MEASURED: Plant response rating, Chickweed

CCC(C)Oc1cc(-c2nn3c(c2Cl)CCCC3)c(F)cc1Cl (stereo not drawn)
4
O=C1COc2cc(F)c(-c3nn4c(c3Cl)CCCC4)cc2N1
10
Fc1cc(Cl)ccc1-c1nn2c(c1Br)CCCC2
9

====

Tested on: sorghum
PROTOCOL_NOTES: Test C preemergence/postemergence greenhouse plant response rating 0 to 100
Assay type: in vivo, Sorghum bicolor
RECORDED_CONDITIONS: Rate 16 g/ha; POSTEMERGENCE
Binarize Plant response rating (0 to 100), Sorghum at 40; below is yes (1), at or above is no (0).

C=CCN1C(=O)COc2cc(F)c(-c3nn4c(c3Cl)CCCC4)cc21
yes (1)
C=C(Cl)COc1cc(-c2nn3c(c2Cl)CCCC3)c(F)cc1Cl
yes (1)
C#CC(C)N1C(=O)COc2cc(F)c(-c3nn4c(c3Cl)CCCC4)cc21 (stereo not shown)
no (0)
COc1cc(-c2nn3c(c2Cl)CCCC3)c(F)cc1Cl
yes (1)
C#CCOc1cc(-c2nn3c(c2Br)CCCC3)c(F)cc1Cl
yes (1)
CC(C)N1C(=O)COc2cc(F)c(-c3nn4c(c3Cl)CCCC4)cc21
no (0)
CC(C)COc1cc(-c2nn3c(c2Cl)CCCC3)c(F)cc1Cl
yes (1)

====

Tested on: blackgrass
PROTOCOL_NOTES: Test B preemergence/postemergence greenhouse plant response rating 0 to 10
Format: in vivo, Alopecurus myosuroides
RECORDED_CONDITIONS: PREEMERGENCE, Rate 200 g/ha
# Lookup of reported Plant response rating (0 to 10 scale), Blackgrass keyed by entry
ATTRIBUTE_MEASURED: Plant response rating (0 to 10 scale), Blackgrass

O=C1COc2cc(F)c(-c3nn4c(c3Br)CCCC4)cc2N1 [Compound 80]
3
COCOc1cc(-c2nn3c(c2Br)CCCC3)c(F)cc1Cl [Compound 65]
7
Oc1cc(-c2nn3c(c2Cl)CCCC3)c(Cl)cc1Cl [Compound 68]
8
C#CC(C)Oc1cc(-c2nn3c(c2Br)CCCC3)c(F)cc1Cl (stereo not drawn) [Compound 66]
7
CCOCOc1cc(-c2nn3c(c2Cl)CCCC3)c(F)cc1Cl [Compound 59]
5
COCCOc1cc(-c2nn3c(c2Cl)CCCC3)c(Cl)cc1Cl [Compound 72]
4
